Tested system: Epidermal growth factor receptor (Homo sapiens, UniProt P00533, T790M)
Sequence (P00533 25-1210 T790M limits assumed): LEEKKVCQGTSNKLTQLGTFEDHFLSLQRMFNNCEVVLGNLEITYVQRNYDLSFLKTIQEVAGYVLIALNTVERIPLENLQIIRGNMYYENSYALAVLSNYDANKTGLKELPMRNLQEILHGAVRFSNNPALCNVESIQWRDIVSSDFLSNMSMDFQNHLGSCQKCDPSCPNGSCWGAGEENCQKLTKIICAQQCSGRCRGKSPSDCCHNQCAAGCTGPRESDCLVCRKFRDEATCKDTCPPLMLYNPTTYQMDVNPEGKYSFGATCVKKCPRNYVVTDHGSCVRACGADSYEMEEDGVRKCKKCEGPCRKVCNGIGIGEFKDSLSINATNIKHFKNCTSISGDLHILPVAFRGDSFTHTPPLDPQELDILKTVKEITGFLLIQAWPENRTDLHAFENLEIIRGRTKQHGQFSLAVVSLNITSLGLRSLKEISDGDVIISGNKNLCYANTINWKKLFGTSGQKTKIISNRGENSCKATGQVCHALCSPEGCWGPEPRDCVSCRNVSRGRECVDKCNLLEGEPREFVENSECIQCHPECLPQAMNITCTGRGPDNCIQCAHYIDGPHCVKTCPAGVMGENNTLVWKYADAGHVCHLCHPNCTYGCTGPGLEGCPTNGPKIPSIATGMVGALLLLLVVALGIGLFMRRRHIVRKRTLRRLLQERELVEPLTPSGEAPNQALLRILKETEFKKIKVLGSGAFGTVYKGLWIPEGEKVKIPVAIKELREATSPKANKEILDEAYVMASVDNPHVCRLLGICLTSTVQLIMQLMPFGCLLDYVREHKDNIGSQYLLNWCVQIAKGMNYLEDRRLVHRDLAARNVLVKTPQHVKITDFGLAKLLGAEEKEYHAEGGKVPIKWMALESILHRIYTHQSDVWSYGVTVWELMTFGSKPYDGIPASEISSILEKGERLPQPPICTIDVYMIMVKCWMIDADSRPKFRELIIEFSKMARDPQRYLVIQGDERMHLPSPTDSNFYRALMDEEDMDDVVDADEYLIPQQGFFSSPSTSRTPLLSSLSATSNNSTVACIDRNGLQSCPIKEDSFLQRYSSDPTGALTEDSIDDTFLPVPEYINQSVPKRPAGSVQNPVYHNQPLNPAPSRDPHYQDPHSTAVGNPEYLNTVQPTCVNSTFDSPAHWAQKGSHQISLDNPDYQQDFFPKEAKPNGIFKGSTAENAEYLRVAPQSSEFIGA
IC50 listing for selected compounds.
Measured quantity: IC50 (nM)

[[record]]
item_smiles = "NS(=O)(=O)c1ccc(CCNC(=S)Nc2ccc3ncnc(Nc4cccc(C(F)(F)F)c4)c3c2)cc1"
measured_quantity = "IC50"
observed_value = 93.4

[[record]]
item_smiles = "COc1cc2ncnc(Nc3ccc(F)c(Cl)c3)c2cc1OCCCCC(=O)Nc1ccc(S(N)(=O)=O)cc1"
measured_quantity = "IC50"
observed_value = 61.9

[[record]]
item_smiles = "C#Cc1cccc(Nc2ncnc3cc(OC)c(OCCCCC(=O)Nc4ccc(S(N)(=O)=O)cc4)cc23)c1"
measured_quantity = "IC50"
observed_value = 48.5

[[record]]
item_smiles = "NS(=O)(=O)c1ccc(NC(=S)Nc2ccc3ncnc(Nc4cccc(C(F)(F)F)c4)c3c2)cc1"
measured_quantity = "IC50"
observed_value = 135

[[record]]
item_smiles = "COc1cc2ncnc(Nc3cccc(C(F)(F)F)c3)c2cc1OCCCCC(=O)Nc1ccc(S(N)(=O)=O)cc1"
measured_quantity = "IC50"
observed_value = 9.2

[[record]]
item_smiles = "COc1cc2ncnc(Nc3ccc(Cl)c(C(F)(F)F)c3)c2cc1OCCCCC(=O)Nc1ccc(S(N)(=O)=O)cc1"
measured_quantity = "IC50"
observed_value = 37.5

[[record]]
item_smiles = "COc1cc2ncnc(Nc3cccc(Cl)c3F)c2cc1OCCCCC(=O)Nc1ccc(S(N)(=O)=O)cc1"
measured_quantity = "IC50"
observed_value = 18

[[record]]
item_smiles = "NS(=O)(=O)c1ccc(CCNC(=S)Nc2ccc3ncnc(Nc4ccc(OCc5cccc(F)c5)c(Cl)c4)c3c2)cc1"
measured_quantity = "IC50"
observed_value = 66.7

[[record]]
item_smiles = "COc1cc2ncnc(Nc3ccc(OCc4cccc(F)c4)c(Cl)c3)c2cc1OCCCCC(=O)Nc1ccc(S(N)(=O)=O)cc1"
measured_quantity = "IC50"
observed_value = 22.8


* * *

IC50 tested on Epidermal growth factor receptor (Homo sapiens): recorded values
Measured quantity: IC50

[[record]]
item_smiles = "COc1cc2ncnc(Nc3ccc(OCc4cccc(F)c4)c(Cl)c3)c2cc1OCCCCC(=O)Nc1ccc(S(N)(=O)=O)cc1"
observed_value = "16.5 nM"

[[record]]
item_smiles = "COc1cc2ncnc(Nc3ccc(F)c(Cl)c3)c2cc1OCCCCC(=O)Nc1ccc(S(N)(=O)=O)cc1"
observed_value = "18.3 nM"

[[record]]
item_smiles = "C#Cc1cccc(Nc2ncnc3cc(OC)c(OCCCCC(=O)Nc4ccc(S(N)(=O)=O)cc4)cc23)c1"
observed_value = "49.2 nM"

[[record]]
item_smiles = "COc1cc2ncnc(Nc3cccc(Cl)c3F)c2cc1OCCCCC(=O)Nc1ccc(S(N)(=O)=O)cc1"
observed_value = "34.8 nM"

[[record]]
item_smiles = "COc1cc2ncnc(Nc3cccc(C(F)(F)F)c3)c2cc1OCCCCC(=O)Nc1ccc(S(N)(=O)=O)cc1"
observed_value = "27 nM"


* * *

Tested system: Carbonic anhydrase 9 (Homo sapiens, UniProt Q16790)
pIC50: −log10 of the molar value.
Measured quantity: pIC50

[[record]]
item_smiles = "COc1cc2ncnc(Nc3cccc(C(F)(F)F)c3)c2cc1OCCCCC(=O)Nc1ccc(S(N)(=O)=O)cc1"
observed_value = 6.94

[[record]]
item_smiles = "COc1cc2ncnc(Nc3ccc(Cl)c(C(F)(F)F)c3)c2cc1OCCCCC(=O)Nc1ccc(S(N)(=O)=O)cc1"
observed_value = 6.65

[[record]]
item_smiles = "NS(=O)(=O)c1ccc(NC(=S)Nc2ccc3ncnc(Nc4cccc(C(F)(F)F)c4)c3c2)cc1"
observed_value = 6.24

[[record]]
item_smiles = "NS(=O)(=O)c1ccc(CCNC(=S)Nc2ccc3ncnc(Nc4cccc(C(F)(F)F)c4)c3c2)cc1"
observed_value = 6.50


Hey, just so you know, these numbers are from ChEMBL document CHEMBL4813962.
